- test method notes: T1/2 in dog (PO dose)
- Assay type: ADME, organism-based
- run conditions: in vivo
readout name: half-life (min)
Only the number, expressed in min, is required.

Sure, the documented half-life for `O=C1NCCN(c2ccccc2)N1` is 48

---

- measured target: Prostaglandin G/H synthase 1 (Ovis aries)
readout name: IC50 (µM)
Only the number, expressed in µM, is required.

Measured IC50 for this entry O=C1CCN(c2ccccc2)N1 [PHENIDONE] on Prostaglandin G/H synthase 1 (Ovis aries): 94

---

- test method notes: Plasma Tmax in rat (PO dose)
- Type: ADME, organism-based
readout name: Tmax (h)
Only the number, expressed in h, is required.

- compound: "CC1CN(c2cccc(-c3ccco3)c2)NC(=O)N1 (stereo unspecified)"
  Tmax, h: 1
- compound: "Cc1cccc(N2CCNC(=O)N2)c1"
  Tmax, h: 1.1
- compound: "COc1cccc(N2CCNC(=O)N2)n1"
  Tmax, h: 1

Sure, the documented Tmax for `CCc1cccc(N2CCNC(=O)N2)c1` is 1.1

Sure, the documented Tmax for `O=C1NCCN(c2cccc(Cl)n2)N1` is 2

Sure, the documented Tmax for `O=C1NCCN(c2cccc(C(F)(F)F)c2)N1` is 4.1

Sure, the documented Tmax for `O=C1NCCN(c2ccccc2)N1` is 1

Sure, the documented Tmax for `O=C1NCCN(c2cc(F)cc(F)c2)N1` is 2
